system: MS2 coat protein; assay: apparent KD of MS2 coat protein; designed switch direction (-1 OFF switch, 1 ON switch): 1; higher = weaker reporter binding; conditions: Eterna round: R95; input ligand: FMN 200 uM
Response key: label 1 means apparent KD of MS2 coat protein >= 30 nM; label 0 means apparent KD of MS2 coat protein < 30 nM.

Sequence String: AUAAGUUCGAUGCUCGUCUCUCCGUACAAACAUGAGGAUCACCCAUGUGGUCAGGAAGUAGCCCGACCAGUAUGGCC [Leedqu] (puzzle: Sensor for hsa-mir-208a)
Assigned Label: label 0

Sequence String: GGUCCAGCCUGAGCUGGACAAAAGCAUGUACAUGAGGAUCACCCAUGUCAUGUACAAGCUUUUUGCUCGUCUUGAAA [JL mod - D87 - 8] (puzzle: Sensor for hsa-mir-208a)
Assigned Label: label 1

Sequence String: GGUCCAGCCUGAGCUGGACAAAAGCAUGUACAUGAGGAUCACCCAUGUCAUGUACAAGCUUUUUGCUCGUCUUAAAU [Mat - hsa-mir-208a - 84] (puzzle: Sensor for hsa-mir-208a)
Assigned Label: label 1

Sequence String: UCAAGCGCACAUGAGGAUCACCCAUGUACCGAGAGUCGUCGUCGGAGAAUGAUGCAUGCUGCUGCUAUUCCACAUUA [Default title] (puzzle: Sensor for hsa-mir-208a version 2)
Assigned Label: label 1

Sequence String: GUAGCAUGCAGGCAGGAUAUUCAUAUUAAAACAUGAGGAUCACCCAUGUAGGCCGAAAGGCCUUGGGAGAAGGGCCACAUGCUAC [Xeonanis - 18] (puzzle: Same State 2)
Assigned Label: label 1

Sequence String: UCUUGGUUUUUGCUCGUUUUUUGUGUUGAACAUGAGGAUCACCCAUGUAUUGUACGGUCCAAUUUGGUAAUGGUCCG [JMF 29] (puzzle: Sensor for hsa-mir-208a)
Assigned Label: label 0

Sequence String: CUCAAAACAAGUUGCAGUGUUCGUCUUUAACAUGAGGAUCACCCAUGUAAUAGCCUGGUGGAAGCGCUCGGGCCACC [Qurabila] (puzzle: Sensor for hsa-mir-208a)
Assigned Label: label 0

Sequence String: AGUCCAGCCUGAGCUGGACAAAAGCAUGUACAUGAGGAUCACCCAUGUCAUGUACAAGCUUUAUGCUCGUCUUAAAA [Mat - hsa-mir-208a - Mod of JL - D15] (puzzle: Sensor for hsa-mir-208a)
Assigned Label: label 1

Sequence String: AGUCCUGAAUAAAUUAAACAGAGACAUGUACAUGAGGAUCACCCAUGUCAUGUGCAAGUUUUUUGCUCGUCAUAUAA [Sensorship 17 - Jieux - Sensor for hsa-mir-208a] (puzzle: Sensor for hsa-mir-208a)
Assigned Label: label 0

Sequence String: ACACAGCUGGGUGAGGAUAUCGGUGGUAAAACAUGAGGAUCACCCAUGUCCGAAGCUCGGACUUCCGAGAAGGCGCCCGGCUGCA [Areronanma] (puzzle: Same State 2)
Assigned Label: label 0
